Data origin, for the record: ChEMBL document CHEMBL3608254

assay: Oral bioavailability in rhesus monkey at 0.5 mg/kg; assay type: ADME, organism-based, Macaca mulatta; conditions: in vivo
observed.property: bioavailability

[[record]]
compound = "COc1cc(-c2cn(C3CCc4c(F)cccc4N(CC(F)(F)F)C3=O)nn2)ccc1-n1cnc(C)c1 (stereo unspecified)"
measured = "< 5%"


---

assay: Lipophilicity, log D of the compound; format: physicochemical; conditions: octanol/water
observed.property: logD

[[record]]
compound = "COc1cc(-c2cn(C3CCc4c(F)cccc4N(CC(F)(F)F)C3=O)nn2)ccc1-n1cnc(C)c1 (stereo unspecified)"
observed_property = "logD"
measured = 3.3


---

test: Half life in rat hepatocytes; format: ADME, cell-based, Hepatocyte
observed.property: half-life (min)

[[record]]
molecule = "COc1cc(-c2cn(C3CCc4c(F)cccc4N(CC(F)(F)F)C3=O)nn2)ccc1-n1cnc(C)c1 (stereo unspecified)"
units_label = "min"
measured = 36

